molecular target: hMCHR (MCH receptor) (Homo sapiens, UniProt Q99705); construct: (or internally produced); host or cells: CHO (Chinese hamster ovary) cells, membrane preparation; assay: MCH Assay PCOP Protocol ([125I]-MCH SPA binding to hMCHR-CHO membranes); details: [125I]-MCH 0.5 nM, hMCHR-CHO membranes; read-out: Activity (ranges of Ki values)
Sequence (Q99705 whole entry): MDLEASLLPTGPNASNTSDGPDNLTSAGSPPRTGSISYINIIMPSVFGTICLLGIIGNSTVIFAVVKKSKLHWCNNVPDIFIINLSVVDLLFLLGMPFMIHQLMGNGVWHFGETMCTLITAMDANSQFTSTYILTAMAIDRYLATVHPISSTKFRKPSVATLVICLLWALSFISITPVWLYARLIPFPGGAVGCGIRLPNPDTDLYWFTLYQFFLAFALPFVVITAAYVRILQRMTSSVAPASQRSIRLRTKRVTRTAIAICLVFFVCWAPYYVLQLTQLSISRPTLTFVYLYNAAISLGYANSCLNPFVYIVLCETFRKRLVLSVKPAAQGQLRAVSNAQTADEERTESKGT
pKi: −log10 of the molar value.
Each record here notes measured pKi.
result.type: pKi

| molecule | result.type | assay.value |
| --- | --- | --- |
| CCOC(=O)N1CCC(NCCC(CNC(=O)Nc2cccc(C(F)(F)F)c2)c2ccc(Cl)cc2)CC1 (stereo not drawn) [Example 128] | pKi | 6.30 to 7.29 |
| N#Cc1cccc(-c2ccc(C(CCNC3CC3)CNC(=O)Nc3cccc(Cl)c3)cc2)c1 (stereo not drawn) [Example 43] | pKi | 7.30 to 9.40 |
| O=S(=O)(NCC(CCNC1CCCC1)c1ccc(Cl)c(Cl)c1)c1ccc(Cl)c(Cl)c1 (racemic) [Example 21] | pKi | 5.60 to 6.30 |
| CN(C)CCCNCCC(CNC(=O)Nc1cc(Cl)cc(Cl)c1)c1cccc(-c2ccccc2Cl)c1 (stereo not drawn) [Example 176] | pKi | 5.60 to 6.30 |
| C[N+](C)([O-])CCC(CNC(=O)Nc1cc(Cl)cc(Cl)c1)c1ccc(-c2ccc[n+]([O-])c2)cc1 (stereo not drawn) [Example 40] | pKi | 5.60 to 6.30 |
| CC(=O)NC1CCN(CCC(CNC(=O)Nc2cc(Cl)cc(Cl)c2)c2ccc(C)cc2)CC1 (stereo not drawn) [Example 206] | pKi | 5.60 to 6.30 |
| Cc1ccc(C(CCNC2CCCC2)CNC(=O)Nc2ccc(Cl)c(Cl)c2)cc1 (stereo not drawn) [Example 127] | pKi | 6.30 to 7.29 |
| COc1cscc1C(=O)NC1CCN(CCC(CNC(=O)Nc2cc(Cl)cc(Cl)c2)c2ccc(Cl)c(Cl)c2)C1 (stereo not drawn) [Example 200] | pKi | 5.60 to 6.30 |
| CC(CCNC1CCCC1)(CNC(=O)Nc1ccc(Cl)c([N+](=O)[O-])c1)c1ccc(Cl)c(Cl)c1 (stereo not drawn) [Example 105] | pKi | 6.30 to 7.29 |
| O=C(NCC(CCNC1CCCC1)c1ccc(Cl)c(Cl)c1)c1cc(C(F)(F)F)cc(C(F)(F)F)c1 (racemic) [Example 20] | pKi | 5.60 to 6.30 |
| CN(C)CCC(CNC(=O)Nc1cc(Cl)cc(Cl)c1)c1ccc(-c2cccnc2)cc1 (stereo not drawn) [Example 36] | pKi | 7.30 to 9.40 |
| Cc1ccc(C(CCNC2CCCC2)CNC(=O)Nc2cc(C(F)(F)F)cc(C(F)(F)F)c2)cc1C (stereo not drawn) [Example 109] | pKi | 6.30 to 7.29 |
| CN(C)CCCNCCC(CNC(=O)Nc1cc(Cl)cc(Cl)c1)c1ccc(-c2ccc(OC(F)(F)F)cc2)cc1 (stereo not drawn) [Example 101] | pKi | 6.30 to 7.29 |
| C[N+](C)([O-])CCC(CNC(=O)Nc1cc(Cl)cc(Cl)c1)c1ccc(-c2cc[n+]([O-])cc2)cc1 (stereo not drawn) [Example 41] | pKi | 5.60 to 6.30 |
| CS(=O)(=O)NC1CCN(CCC(CNC(=O)Nc2cc(Cl)cc(Cl)c2)c2ccc(Cl)cc2)CC1 (stereo not drawn) [Example 179] | pKi | 6.30 to 7.29 |

====

molecular target: hMCHR (MCH receptor) (Homo sapiens, UniProt Q99705); construct: (or internally produced); host or cells: CHO (Chinese hamster ovary) cells, membrane preparation; test: MCH Assay PCOP Protocol ([125I]-MCH SPA binding to hMCHR-CHO membranes); settings: [125I]-MCH SPA binding, hMCHR-CHO membranes; Ki class ranges; read-out: Activity (range of Ki)
// Ki lookup, one value per entry

| compound | Ki |
| --- | --- |
| CN(C)CCCNCCC(CNC(=O)Nc1cc(C(F)(F)F)cc(C(F)(F)F)c1)c1ccc(Cl)c(Cl)c1 (stereo not shown) | 501 to 2500 nM |
| CC(Cc1c[nH]c2ccc(F)cc12)NCCC(CNC(=O)Nc1cc(C(F)(F)F)cc(C(F)(F)F)c1)c1ccc(Cl)c(Cl)c1 (stereo not shown) | 501 to 2500 nM |
| CCN1CCCC1CNCCC(CNC(=O)Nc1cc(C(F)(F)F)cc(C(F)(F)F)c1)c1ccc(Cl)c(Cl)c1 (stereo not shown) | 51 to 500 nM |
| O=C(NCC(CCN1CCCCC1)c1ccc(Cl)c(Cl)c1)c1cccc(Cl)c1 (stereo not shown) | 501 to 2500 nM |
| O=C(NCC(CCNCCN1CCOCC1)c1ccc(Cl)c(Cl)c1)Nc1cc(C(F)(F)F)cc(C(F)(F)F)c1 (stereo not shown) | 501 to 2500 nM |
| CCCCN(CCC(CNC(=O)Nc1cc(C(F)(F)F)cc(C(F)(F)F)c1)c1ccc(Cl)c(Cl)c1)C1CC1 (stereo not shown) | 501 to 2500 nM |
| Cc1ccc(C(CCN2CCC(N3CCCCC3)CC2)CNC(=O)Nc2cc(C(F)(F)F)cc(C(F)(F)F)c2)cc1 (stereo not shown) | 51 to 500 nM |

====

Each entry below lists one item and its recorded Ki value.
molecular target: hMCHR (MCH receptor) (Homo sapiens); construct: (or internally produced); host or cells: CHO (Chinese hamster ovary) cells, membrane preparation; assay: MCH Assay PCOP Protocol ([125I]-MCH SPA binding to hMCHR-CHO membranes); conditions: [125I]-MCH binding to hMCHR-CHO membranes; class symbols for ranges of Ki; read-out: Activity (Ki range)

| molecule | Ki |
| --- | --- |
| CCOC(=O)N1CCC(NCCC(CNC(=O)Nc2cccc(C(F)(F)F)c2)c2ccc(Cl)c(Cl)c2)CC1 (stereo not shown) | 0.051 to 0.5 µM |
| CN(C)C1CCN(CCC(CNC(=O)Nc2cccc(C(F)(F)F)c2)c2ccc(Cl)c(Cl)c2)C1 (stereo not shown) | 0.501 to 2.5 µM |
| O=C(NCC(CCNC1CCNC1)c1ccc(Cl)c(Cl)c1)Nc1cc(C(F)(F)F)cc(C(F)(F)F)c1 (stereo not shown) | 0.501 to 2.5 µM |
| Cc1ccc(-c2ccc(C(CCNC3CCCC3)CNC(=O)Nc3cc(Cl)cc(Cl)c3)cc2)cc1 (stereo not shown) | 0.051 to 0.5 µM |

====

target: hMCHR (MCH receptor) (Homo sapiens, UniProt Q99705); construct: (or internally produced); host or cells: CHO (Chinese hamster ovary) cells, membrane preparation; test: MCH Assay PCOP Protocol ([125I]-MCH SPA binding to hMCHR-CHO membranes); conditions: [125I]-MCH SPA binding, hMCHR-CHO membranes; Ki class ranges; read-out: Activity (range of Ki)
# Ki per record follows

| compound | Ki |
| --- | --- |
| CCCN(CC)CCC(CNC(=O)Nc1cc(C(F)(F)F)cc(C(F)(F)F)c1)c1ccc(Cl)c(Cl)c1 (stereo not shown) | 501 to 2500 nM |
| CCN(CC)CCC(CNC(=O)Nc1cc(C(F)(F)F)cc(C(F)(F)F)c1)c1ccc(Cl)c(Cl)c1 (stereo not shown) | 501 to 2500 nM |
| CC1CCCCN1CCC(CNC(=O)c1cc(C(F)(F)F)cc(C(F)(F)F)c1)c1ccc(Cl)c(Cl)c1 (stereo not shown) | 501 to 2500 nM |
| O=C(NCc1cc(C(F)(F)F)cc(C(F)(F)F)c1)C(CCN1CCC(N2CCCCC2)CC1)c1ccc(Cl)c(Cl)c1 (stereo not shown) | 501 to 2500 nM |
| O=C(NCC(CCN1CCCC1)c1ccc(Cl)c(Cl)c1)Nc1cc(C(F)(F)F)cc(C(F)(F)F)c1 (stereo not shown) | 51 to 500 nM |
| COc1cc(CN(C)CCC(CNC(=O)Nc2cc(C(F)(F)F)cc(C(F)(F)F)c2)c2ccc(Cl)c(Cl)c2)cc(OC)c1OC (stereo not shown) | 51 to 500 nM |
| N#Cc1cccc(C(=O)NCC(CCN2CCCCC2)c2ccc(Cl)c(Cl)c2)c1 (stereo not shown) | 501 to 2500 nM |

====

target: hMCHR (MCH receptor) (Homo sapiens, UniProt Q99705); construct: (or internally produced); host or cells: CHO (Chinese hamster ovary) cells, membrane preparation; assay: MCH Assay PCOP Protocol ([125I]-MCH SPA binding to hMCHR-CHO membranes); details: [125I]-MCH binding to hMCHR-CHO membranes; class symbols for ranges of Ki; read-out: Activity (Ki range);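 on Activity (Ki range): A 0.4–50 nM B 51–500 nM C 501–2500 nM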
Property: Ki; scope: individual compounds
result.type: Ki

| compound | result.type | assay.value |
| --- | --- | --- |
| CN(C)CCCNCCC(CNC(=O)Nc1cc(Cl)cc(Cl)c1)c1ccc(-c2ccc(F)cc2)cc1 (centres unmarked) [Example 237] | Ki | 0.051 to 0.5 µM |
| O=C(NCC(CCNC1CCC1)c1ccc(Cl)c(Cl)c1)Nc1ccc(F)c(Cl)c1 (centres unmarked) [Example 263] | Ki | 0.501 to 2.5 µM |
| CN(C)CCCNCCC(CNC(=O)Nc1cc(Cl)cc(Cl)c1)c1ccc(Cl)c(Cl)c1 (centres unmarked) [Example 304] | Ki | 0.501 to 2.5 µM |
| O=C(NCc1cc(C(F)(F)F)cc(C(F)(F)F)c1)C(CCN1CCC(O)CC1)c1ccc(Cl)c(Cl)c1 (centres unmarked) [Example 389] | Ki | 0.501 to 2.5 µM |
| CC(C)OCCCNCCC(C(=O)NCc1cc(C(F)(F)F)cc(C(F)(F)F)c1)c1ccc(Cl)c(Cl)c1 (centres unmarked) [Example 384] | Ki | 0.501 to 2.5 µM |
| NC1CCN(CCC(CNC(=O)Nc2cc(Cl)cc(Cl)c2)c2ccc(Cl)c(Cl)c2)CC1 (centres unmarked) [Example 322] | Ki | 0.501 to 2.5 µM |
| CN(C)CCCNCCC(CNC(=O)Nc1cc(Cl)cc(Cl)c1)c1ccc(-c2ccc(Cl)cc2)cc1 (centres unmarked) [Example 246] | Ki | 0.051 to 0.5 µM |
| O=C(NCC(CCN1CCC(N2CCCCC2)CC1)c1ccc(Cl)c(Cl)c1)Nc1ccc(Br)cc1Br (centres unmarked) [Example 359] | Ki | 0.501 to 2.5 µM |
